Test: Primary qHTS for inhibitors of nuclear receptor binding SET domain protein 2 (NSD2) in an RCH-ACV wild type WT cells (2C) (AID 1645877); note: nearly all actives have a fitted effect of over 70% in size
Conditions: RCH-ACV (leukaemia line) NSD2 WT (2C) viability, CellTiter-Glo, 72 h; series mostly up to 44.9 µM
Source text: Assay Provider: Jonathan D. Licht, MD University of Florida College of Medicine, Gainesville, FL Mutations in epigenetic regulators are common in relapsed pediatric acute lymphoblastic leukemia (ALL). Here, we uncovered the mechanism underlying the relapse of ALL driven by an activating mutation of the NSD2 histone methyltransferase (p.E1099K). […] Correction of this mutation restored glucocorticoid sensitivity. […]
Inconclusive results are not listed. Calls of active or inactive are those of the source. Calls come from the whole dose curve; as a rule, active = well fitted inhibition curve with a large enough effect; inconclusive = small, poorly fitted or top-dose-only effect; inactive = no such curve, though single readings can be large or run the other way.
Pick from label 1 = active, label 0 = inactive when you respond.

Hi, do you know how CN(C)CCOc1cc(-c2cn[nH]c2)ccc1NC(=O)C1COc2ccccc2O1 (centres undefined) came out in this test?
label 1

Please let me know the test result on file for Cc1nn(Cc2ccccc2Cl)c(C)c1CN(C)CC(O)COc1ccc(Cl)cc1 (centres undefined) .
label 1

Dear all, I need the recorded test outcome for COc1cc(Nc2nc3ccccc3nc2NS(=O)(=O)c2ccc(NC(=O)c3ccc(C)c(OC)c3)cc2)cc(OC)c1 , thank you.
label 0

Please state the recorded outcome for this compound: CCN(CCO)CCCOc1ccc2c(Nc3cc(CC(=O)Nc4cccc(F)c4)[nH]n3)ncnc2c1
label 1

Dear colleague, could you share the recorded outcome for CCC[C@H](N[C@@H](C)C(=O)N1[C@@H]2CCCC[C@H]2C[C@H]1C(=O)O)C(=O)OCC when you have a moment?
label 0

Just curious, what result did CC[C@H](C=C[C@@H](C)[C@H]1CC[C@H]2[C@@H]3CC=C4C[C@@H](O)CC[C@]4(C)[C@@H]3CC[C@]12C)C(C)C get here?
label 0

Recorded call for OC1CCC(Nc2ncc3nc(Nc4c(F)cc(F)cc4F)n([C@@H]4CCOC4)c3n2)CC1 (some centres undefined) ?
label 0

What did this assay record as the result for O=c1cc(-c2ccc(O)c(O)c2)oc2cc(O)cc(O)c12 ?
label 1

How did this test come out for N#CC(c1ccnc(NCCc2cccnc2)n1)c1nc2ccccc2s1 (centres undefined) ?
label 1

Could you kindly confirm the outcome this assay logged for Nc1ccn([C@@H]2O[C@H](CO)[C@@H](O)[C@H]2O)c(=O)n1 ?
label 0

Please indicate how the test categorized COc1cccc(OC)c1-c1cc(C(=O)NC2(C(=O)O)C3CC4CC(C3)CC2C4)nn1-c1ccnc2cc(Cl)ccc12 (centres undefined) .
label 0

Recorded call for Cc1nc(NC(=O)N2CCC[C@@H]2C(N)=O)sc1-c1csc(C(C)(C)C)n1 ?
label 1

Each compound tested received a call. Report the one for CCCCCCCCCCCCCC(=O)N[C@H](CO)[C@H](O)c1ccc([N+](=O)[O-])cc1 .
label 0

In this assay, the call recorded for CNC(=O)c1ccc2c(C(=Nc3cccc(CN(C)C)c3)c3ccccc3)c(O)[nH]c2c1 was what?
label 1

Recorded test outcome, item Nc1ncnc2c1c(-c1cccc(OCc3ccccc3)c1)cn2C1CC(CN2CCC2)C1 (centres undefined)
label 1

Write down the call the test reported for this compound. Item: CC1CNc2c(cccc2S(=O)(=O)N[C@@H](CCCN=C(N)N)C(=O)N2CC[C@@H](C)C[C@@H]2C(=O)O)C1 (some centres undefined)
label 0

Each compound tested received a call. Report the one for Cc1ccc(S(=O)(=O)OCC(=O)Nc2ccc(C(=O)O)c(O)c2)cc1 .
label 0

Could you kindly confirm the outcome this assay logged for CCCCC[C@H](O)C=C[C@H]1[C@H](O)CC(=O)[C@H]1CC=CCCCC(=O)O ?
label 1

How did this test come out for COC(=O)Nc1ccc(-c2nc(N3CCOCC3)c3cnn(C4CCN(C(=O)OC)CC4)c3n2)cc1 ?
label 1

* * *

test: qHTS of pediatric cancer cell lines to identify multiple opportunities for drug repurposing: Primary screen for LAN-5 cells (AID 1347100); conditions: LAN-5 neuroblastoma viability, CellTiter-Glo luminescence, 48 h; series mostly up to 46 µM; note: potency is the fitted concentration of half-maximal effect
Inconclusive results are not listed. Active and inactive are the calls of the source. The call rests on the fitted dose curve; in most records, active means well fitted cell-killing curve with a large enough effect; inconclusive means small, poorly fitted or top-dose-only effect; inactive means no such curve, though single readings can be large or run the other way.
measurement.label: Potency

Solved entries:
* NCc1c[nH]c(=S)n1[C@H]1CCc2c(F)cc(F)cc2C1 | 23.5 µM (active)
* CC[C@H](NC(=O)[C@H](C)NC)C(=O)N1C[C@@H](O)C[C@H]1Cc1c(-c2[nH]c3cc(F)ccc3c2C[C@H]2C[C@H](O)CN2C(=O)[C@H](CC)NC(=O)[C@H](C)NC)[nH]c2cc(F)ccc12 | 0.372 µM (active)
* NC(=O)c1nnn(Cc2cc(Cl)c(C(=O)c3ccc(Cl)cc3)c(Cl)c2)c1N | 20.9 µM (active)
* CN[C@@H]1CN(c2ccc3c(=O)c(C(=O)O)cn(-c4nccs4)c3n2)C[C@@H]1OC | 1.02 µM (active)
* Oc1cc(O)cc(C=Cc2ccc(O)c(O)c2)c1 | 13.2 µM (active)
* O=S(=O)(O)c1ccc2cc(N=Nc3cc(S(=O)(=O)O)c4cccnc4c3O)ccc2c1 | inactive
* CC1(C)[C@H]2CC[C@]3(C)[C@@H](C(=O)C=C4[C@@H]5C[C@@](C)(C(=O)O)CC[C@]5(C)CC[C@]43C)[C@@]2(C)CC[C@@H]1O | inactive
* Nc1ncnc2c1c(-c1cccc(OCc3ccccc3)c1)cn2C1CC(CN2CCC2)C1 (stereo unspecified) | 4.69 µM (active)

# return recorded Potency for entry Cc1ccc(C(=O)N(CCCN)[C@@H](c2nc3cc(Cl)ccc3c(=O)n2Cc2ccccc2)C(C)C)cc1
0.001 µM (active)

For the molecule COc1cc(C=CC(=O)O)ccc1O , report Potency.
inactive

Could you please provide reported Potency for Cc1cnc(Nc2cccc(CN3CCOCC3)c2)nc1Nc1cccc(S(=O)(=O)NC(C)(C)C)c1 ? Thanks!
1.48 µM (active)

* * *

assay: Quantitative High-Throughput drug screen in 47 multiple myeloma cell lines against the NCATS MIPE library collection: KMS27_JCRB cell viability assay (AID 1918970); details: KMS27 myeloma cells, CellTiter-Glo ATP viability, 48 h; note: nearly all actives have a fitted effect of over 30% in size
Records with an inconclusive call do not appear. Activity calls are given as the source filed them. Calls come from the whole dose curve; as a rule, active = well fitted cell-killing curve with a large enough effect; inconclusive = small, poorly fitted or top-dose-only effect, or effect the other way; inactive = no such curve, though single readings can be large or run the other way.
Reply using exactly one outcome from active, inactive

Status in this test for CS(=O)(=O)c1ccc(C2=C(c3ccccc3)C(=O)OC2)cc1 ?
inactive

Hi, do you know how COC1CCC(C(=O)c2ccc3nc4c(cc3c2)CCCO4)CC1 (configuration not stated) came out in this test?
active

Call for entry Cn1cc(-c2ccc3nnc(Sc4ccc5ncccc5c4)n3n2)cn1 :
inactive

Write down the call the test reported for this compound. Item: CCN1CCN(c2ccc(Nc3cc(N(C)C(=O)Nc4c(Cl)c(OC)cc(OC)c4Cl)ncn3)cc2)CC1
inactive

Returns: the outcome recorded for CC[C@H](CC#N)OC(=O)N[C@@H](C)c1cccc(NC(=O)Nc2ccc(-c3cnco3)c(OC)c2)c1 in this assay.
active

Fill in: this test's call for COc1nc(C)cnc1NS(=O)(=O)c1cccnc1-c1ccc(-c2nnco2)cc1 is ___
inactive

Recorded call for CC=C1C2C=C(C)CC1(N)c1ccc(=O)[nH]c1C2 (configuration not stated) ?
inactive

* * *

Target: Cytochrome P450 2C9 (Homo sapiens) (UniProt P11712)
Sequence (P11712 whole entry, looked up): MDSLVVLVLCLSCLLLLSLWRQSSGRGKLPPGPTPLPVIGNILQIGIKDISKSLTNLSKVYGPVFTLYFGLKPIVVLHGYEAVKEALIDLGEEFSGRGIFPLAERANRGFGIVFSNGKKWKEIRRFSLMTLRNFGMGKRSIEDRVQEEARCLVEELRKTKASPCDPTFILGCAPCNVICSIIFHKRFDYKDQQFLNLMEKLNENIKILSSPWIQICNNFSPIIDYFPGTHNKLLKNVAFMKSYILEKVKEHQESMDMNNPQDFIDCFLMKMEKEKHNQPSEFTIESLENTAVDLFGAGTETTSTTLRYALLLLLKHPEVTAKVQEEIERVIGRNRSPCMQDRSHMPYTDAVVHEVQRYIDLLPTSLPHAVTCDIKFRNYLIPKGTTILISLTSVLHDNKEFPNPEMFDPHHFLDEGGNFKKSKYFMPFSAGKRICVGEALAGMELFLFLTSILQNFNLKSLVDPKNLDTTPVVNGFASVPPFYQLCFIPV
Assay: Cytochrome P450 family 2 subfamily C member 9 (CYP2C9) small molecule antagonists: luciferase biochemical (cell-free) qHTS assay (AID 1645842); note: nearly all actives have a fitted effect of over 55% in size
Details: P450-Glo CYP2C9 enzyme assay, luciferin luminescence; series mostly up to 57.4 µM
Description: National Center for Advancing Translational Sciences [NCATS] Assay Overview: Cytochrome P450 (CYP) enzymes are membrane-bound hemeproteins that play a key role in metabolism of drugs and xenobiotics. Assaying the effect of chemicals on CYP isozymes is useful to minimize the adverse drug reactions and toxicities in drug development process. […] The luciferin products formed are detected with a luciferin detection reagent, and the amount of light produced is proportional to CYP activity. […]
Inconclusive results are not listed. Activity calls are given as the source filed them. The call rests on the fitted dose curve; in most records, active means well fitted inhibition curve with a large enough effect in the repeat runs; inconclusive means weak or mixed curves; inactive means no such curve, though single readings can be large or run the other way.
Please state which outcome applies, choosing from active, inactive

Test call for this compound, please: CNc1nc(Nc2ccc(C(=O)N3CCOCC3)cc2OC)ncc1Cl
inactive

Query: recorded result category for Clc1ccc(C2(c3ccc(-c4cn[nH]c4)cc3)CCNCC2)cc1 in this test
active

For Cc1ccc(NC(=O)c2cccc(N(C)C)c2)cc1NC(=O)c1ccc(O)cc1 , what call appears in the results of this test?
active

Hi, do you know how N#CC(c1ccc(Cl)cc1)c1c(Cl)cc(-n2ncc(=O)[nH]c2=O)cc1Cl (stereo not drawn) came out in this test?
active

Given O=C(Nc1cccc(C(F)(F)F)c1)Nc1cc(S(=O)(=O)NC2CC2)ccc1-c1ccsc1 , state the outcome it received in this test.
active

Please let me know the test result on file for CC[C@H](CC#N)OC(=O)N[C@@H](C)c1cccc(NC(=O)Nc2ccc(-c3cnco3)c(OC)c2)c1 .
active

Write down the call the test reported for this compound. Item: c1ccc(-c2oc3ncnc(NC[C@@H]4CCCO4)c3c2-c2ccccc2)cc1
active

Status in this test for O=C(c1ccc(C(=O)N2CCC(N3CCCC3)CC2)c(Nc2ccccc2)c1)N1CCC(N2CCCC2)CC1 ?
inactive

Recorded values, source PubChem BioAssay (NCATS).
